- system_under_test: Prostaglandin E2 receptor EP2 subtype (Homo sapiens)
- test_description: EP2 receptor modulators, dose response, cell-based, human EP2, PGE2 EC50 shift (AID 1421)
- measurement_conditions: EP2-expressing cells, PGE2 EC50 shift by compound; measured here: PGE2 EC50 at 6.7 uM compound
So basically: is PGE2 EC50 with compound under 1 nM? Then 1 (yes). Not under? Then 0 (no).

Previously resolved entries follow.
CCc1ccccc1NC(=O)/C(=C/c1ccco1)c1ccccc1 ... 0 (no)
CN(CC(=O)Nc1ccccc1Oc1ccccc1)Cc1ccccc1F ... 0 (no)
CCCCCOC(=O)c1[nH]c2c(c1C)C(=O)C(C(=O)OC)C(C)C2 (stereo unspecified) ... 0 (no)
CC(C)n1cc(-c2ccc(Cl)cc2)cc(C#N)c1=O ... 0 (no)

Exercise: Consider COc1ccc2cc(CN(Cc3ccco3)C(c3nnnn3C3CCCCC3)C(C)C)c(=O)[nH]c2c1 (stereo unspecified) . Does its PGE2 EC50 with compound lie strictly below 1 nM?
Solution: 1 (yes)

Exercise: Consider Cc1cccc(NCc2nc3ccccc3n2Cc2ccccc2)c1 . Does its PGE2 EC50 with compound lie strictly below 1 nM?
Solution: 0 (no)

Exercise: Consider O=C(Cc1ccc(F)cc1)Nc1ccccc1Sc1ccccc1 . Does its PGE2 EC50 with compound lie strictly below 1 nM?
Solution: 1 (yes)

Exercise: Consider C=CCSc1nc2ccccc2n1S(=O)(=O)c1ccc(C)cc1 . Does its PGE2 EC50 with compound lie strictly below 1 nM?
Solution: 1 (yes)
